This collection of values is drawn from patent US12145925B2.

Test target: PARP2 (Homo sapiens)
Sequence (Q9UGN5 whole entry): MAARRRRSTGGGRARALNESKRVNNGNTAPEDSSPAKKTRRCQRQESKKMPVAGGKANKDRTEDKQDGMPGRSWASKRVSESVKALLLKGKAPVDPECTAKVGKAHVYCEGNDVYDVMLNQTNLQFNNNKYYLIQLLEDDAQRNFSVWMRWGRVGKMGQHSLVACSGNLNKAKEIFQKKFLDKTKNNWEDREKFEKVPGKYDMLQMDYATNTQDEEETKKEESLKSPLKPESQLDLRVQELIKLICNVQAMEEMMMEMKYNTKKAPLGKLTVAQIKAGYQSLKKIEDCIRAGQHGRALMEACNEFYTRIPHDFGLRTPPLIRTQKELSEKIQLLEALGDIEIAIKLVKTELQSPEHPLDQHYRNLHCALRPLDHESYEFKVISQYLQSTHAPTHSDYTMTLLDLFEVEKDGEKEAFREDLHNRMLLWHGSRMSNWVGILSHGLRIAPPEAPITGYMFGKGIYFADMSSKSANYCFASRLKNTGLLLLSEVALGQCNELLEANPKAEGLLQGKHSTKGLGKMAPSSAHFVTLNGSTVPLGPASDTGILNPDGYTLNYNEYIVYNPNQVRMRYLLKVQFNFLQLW
Measured parameter: IC50 (pM)
Answers are plain numbers, in pM.

Per the records, this compound ( COC(=O)Nc1nc2cc(-c3cc(Cc4n[nH]c(=O)c5ccccc45)ccc3F)ccc2[nH]1 ) has IC50 equal to 50
